System: Prevotella intermedia
assay: Antibacterial activity against Prevotella intermedia by CLSI M11-A6 agar dilution method
Format: functional
attribute measured: MIC50 (µg/mL)
The reply should contain only the number, in µg/mL.

CCCCCCCCCCNCCN[C@@]1(C)C[C@H](O[C@H]2[C@H](Oc3c4cc5cc3Oc3ccc(cc3Cl)[C@@H](O)[C@@H](NC(=O)[C@@H](CC(C)C)NC)C(=O)N[C@@H](CC(N)=O)C(=O)N[C@H]5C(=O)N[C@H]3C(=O)N[C@H](C(=O)N[C@H](C(=O)O)c5cc(O)c(CNCP(=O)(O)O)c(O)c5-c5cc3ccc5O)[C@H](O)c3ccc(c(Cl)c3)O4)O[C@H](CO)[C@@H](O)[C@@H]2O)O[C@@H](C)[C@H]1O : 8

Next up:
For Cc1ncc([N+](=O)[O-])n1CCO , write its MIC50. 0.5

###

Tested on: Phocaeicola vulgatus
assay: Antibacterial activity against Bacteroides vulgatus by CLSI M11-A6 agar dilution method
Format: functional
Let's look at some compounds and their measured MIC90.
Number only, in µg/mL; omit the unit.

CN[C@H](CC(C)C)C(=O)N[C@H]1C(=O)N[C@@H](CC(N)=O)C(=O)N[C@H]2C(=O)N[C@H]3C(=O)N[C@H](C(=O)N[C@H](C(=O)O)c4cc(O)cc(O)c4-c4cc3ccc4O)[C@H](O)c3ccc(c(Cl)c3)Oc3cc2cc(c3O[C@@H]2O[C@H](CO)[C@@H](O)[C@H](O)[C@H]2O[C@H]2C[C@](C)(N)[C@H](O)[C@H](C)O2)Oc2ccc(cc2Cl)[C@H]1O [VANCOMYCIN] : 128

Return MIC90 (reported value) for this compound: Cc1ncc([N+](=O)[O-])n1CCO [METRONIDAZOLE] 1

###

System: Actinomyces naeslundii
assay: Antibacterial activity against Actinomyces naeslundii by CLSI M11-A6 agar dilution method
Type: functional
attribute measured: MIC50 (µg/mL)
Answer with a number only, understood to be in µg/mL.

CCCCCCCCCC(=O)N[C@@H](Cc1c[nH]c2ccccc12)C(=O)N[C@H](CC(N)=O)C(=O)N[C@@H](CC(=O)O)C(=O)N[C@@H]1C(=O)NCC(=O)N[C@@H](CCCN)C(=O)N[C@@H](CC(=O)O)C(=O)N[C@H](C)C(=O)N[C@@H](CC(=O)O)C(=O)NCC(=O)N[C@H](CO)C(=O)N[C@@H]([C@H](C)CC(=O)O)C(=O)N[C@@H](CC(=O)c2ccccc2N)C(=O)O[C@@H]1C : 1

Provide the reported MIC50 (system: Actinomyces naeslundii) for CC(=O)NC[C@H]1CN(c2ccc(N3CCOCC3)c(F)c2)C(=O)O1 1

###

Measured MIC90 values are reported for all entries that follow.
Test system: Bifidobacterium pseudolongum
assay: Antibacterial activity against Bifidobacterium pseudolongum by CLSI M11-A6 agar dilution method
Assay type: functional
Give your result in mg/L as a bare value.

CCCCCCCCCC(=O)N[C@@H](Cc1c[nH]c2ccccc12)C(=O)N[C@H](CC(N)=O)C(=O)N[C@@H](CC(=O)O)C(=O)N[C@@H]1C(=O)NCC(=O)N[C@@H](CCCN)C(=O)N[C@@H](CC(=O)O)C(=O)N[C@H](C)C(=O)N[C@@H](CC(=O)O)C(=O)NCC(=O)N[C@H](CO)C(=O)N[C@@H]([C@H](C)CC(=O)O)C(=O)N[C@@H](CC(=O)c2ccccc2N)C(=O)O[C@@H]1C : 32

Check the records and state MIC90 for CC(=O)NC[C@H]1CN(c2ccc(N3CCOCC3)c(F)c2)C(=O)O1 8
